Just for reference, PubChem BioAssay (NCATS) is where these values come from.

test.method.notes: qHTS of pediatric cancer cell lines to identify multiple opportunities for drug repurposing: Primary screen for DAOY cells (AID 1347090);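 note: plate controls were DMSO for no effect and bortezomib for full effect; nearly all actives have a fitted effect of over 55% in size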
condition.notes: DAOY medulloblastoma viability, CellTiter-Glo luminescence, 48 h; series mostly up to 46 µM
Records with an inconclusive call do not appear. Activity calls are given as the source filed them. Calls come from the whole dose curve; as a rule, active = well fitted cell-killing curve with a large enough effect; inconclusive = small, poorly fitted or top-dose-only effect; inactive = flat fitted curve, though single readings scatter.
Outcome (select one): 1.0 = active, 0.0 = inactive

Please review the entries below; each comes with its answer.
>  <compound>
CNC[C@H](O)c1ccc(O)c(O)c1

>  <class.label>
0.0

$$$$
>  <compound>
CCN(CCO)CCCC(C)Nc1ccnc2cc(Cl)ccc12 (stereo not given)

>  <class.label>
0.0

$$$$
>  <compound>
Cc1cccc(C)c1OCC(=O)N[C@@H](Cc1ccccc1)[C@@H](O)C[C@H](Cc1ccccc1)NC(=O)[C@H](C(C)C)N1CCCNC1=O

>  <class.label>
0.0

$$$$
>  <compound>
NC(=O)Cc1cccc(C(=O)c2ccccc2)c1N

>  <class.label>
0.0

$$$$

Input line: // return assay outcome for Cc1ccc(S(=O)(=O)NC(=O)NN2CC3CCCC3C2)cc1 (stereo not given)
Output line: 0.0

Input line: Follow-up entry: `CN1C(C(=O)Nc2ccccn2)=C(O)c2sccc2S1(=O)=O`
Output line: 0.0

Input line: Follow-up entry: `c1cnc2cc3c(cc2n1)C1CNCC3C1`
Output line: 0.0

Input line: Follow-up entry: `C=CCc1cc(OC)c(O)c(C(=O)NCCO)c1`
Output line: 0.0

Input line: Follow-up entry: Cc1c(OCC(F)(F)F)ccnc1CS(=O)c1nc2ccccc2[nH]1 (stereo not given)
Output line: 0.0

Input line: Follow-up entry: Clc1ccc(C(Cn2ccnc2)OCc2c(Cl)cccc2Cl)c(Cl)c1 (stereo not given)
Output line: 0.0

---

Tested on: CP238
test.method.notes: qHTS profiling for inhibitors of Plasmodium falciparum proliferation (AID 504749); note: nearly all actives have a fitted effect of over 60% in size
condition.notes: P. falciparum in erythrocytes, SYBR Green DNA, 72 h; series mostly up to 28.7 µM
Results filed as inconclusive are left out. Active and inactive are the calls of the source. The call rests on the fitted dose curve; in most records, active means well fitted inhibition curve with a large enough effect; inconclusive means small, poorly fitted or top-dose-only effect; inactive means flat fitted curve, though single readings scatter.
Outcome (select one): active, inactive

Please review the entries below; each comes with its answer.
>  <compound>
COC1=C(OC)C(=O)C(CCCCCCCCCCO)=C(C)C1=O

>  <class.label>
inactive

$$$$
>  <compound>
C=C(c1ccc(C(=O)O)cc1)c1cc2c(cc1C)C(C)(C)CCC2(C)C

>  <class.label>
inactive

$$$$
>  <compound>
CC(C)c1ccc2oc3nc(N)c(C(=O)O)cc3c(=O)c2c1

>  <class.label>
inactive

$$$$
>  <compound>
Cc1c(OCC(F)(F)F)ccnc1CS(=O)c1nc2ccccc2[nH]1 (stereo not drawn)

>  <class.label>
inactive

$$$$

Input line: // return assay outcome for `CC[C@]1(O)C[C@H]2CN(CCc3c([nH]c4ccccc34)[C@@](C(=O)OC)(c3cc4c(cc3OC)N(C=O)[C@H]3[C@@](O)(C(=O)OC)[C@H](OC(C)=O)[C@]5(CC)C=CCN6CC[C@]43[C@@H]65)C2)C1`
Output line: active

Input line: Follow-up entry: `Oc1ccc(OCc2ccccc2)cc1`
Output line: inactive

Input line: Follow-up entry: `CC1(C)CCC(C)(C)c2cc(NC(=O)c3ccc(C(=O)O)cc3)ccc21`
Output line: inactive

Input line: Follow-up entry: `CNC[C@@H](O)[C@@H](O)[C@H](O)[C@H](O)CO`
Output line: inactive
